# assayed_system: furin, P09958;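 further: purified furin at 1:10 enzyme:substrate in 50 mM HEPES pH 7.5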
# Sequence (P09958 whole entry): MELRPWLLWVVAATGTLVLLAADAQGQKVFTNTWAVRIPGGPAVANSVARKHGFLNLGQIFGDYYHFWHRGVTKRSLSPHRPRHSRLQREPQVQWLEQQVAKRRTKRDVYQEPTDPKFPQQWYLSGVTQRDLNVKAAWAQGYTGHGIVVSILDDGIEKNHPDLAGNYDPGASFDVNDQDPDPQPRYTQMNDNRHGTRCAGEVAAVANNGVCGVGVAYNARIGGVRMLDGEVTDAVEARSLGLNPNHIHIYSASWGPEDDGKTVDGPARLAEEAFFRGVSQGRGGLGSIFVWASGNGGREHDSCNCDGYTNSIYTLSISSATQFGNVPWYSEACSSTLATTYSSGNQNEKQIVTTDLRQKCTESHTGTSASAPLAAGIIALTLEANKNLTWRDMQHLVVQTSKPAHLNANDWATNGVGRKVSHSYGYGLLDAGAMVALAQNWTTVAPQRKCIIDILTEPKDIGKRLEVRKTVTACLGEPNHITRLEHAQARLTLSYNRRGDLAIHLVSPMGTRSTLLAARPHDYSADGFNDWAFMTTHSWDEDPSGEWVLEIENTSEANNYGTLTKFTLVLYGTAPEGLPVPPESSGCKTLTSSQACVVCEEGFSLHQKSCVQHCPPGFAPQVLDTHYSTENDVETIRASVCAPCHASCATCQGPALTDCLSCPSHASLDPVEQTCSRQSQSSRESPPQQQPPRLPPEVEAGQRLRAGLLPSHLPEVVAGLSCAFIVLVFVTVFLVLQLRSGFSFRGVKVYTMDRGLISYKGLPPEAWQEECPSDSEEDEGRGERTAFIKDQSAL
# experimental_protocol: furin cleavage Z-score vs untreated control; higher = more cleavage, active = 3.5 or more, inactive = 1 or less, 8 variable residues between constant flanks
# conditions: 7.5 min
Some of the results follow. The hit rate among all sequences tested is not known here.
This section presents sequences with their documented furin cleavage Z-score values.
measured_property: furin cleavage Z-score

input_sequence="CARRKRSRKPAGNASASA [FS-1835]" reported_value=6.72
input_sequence="CAEKMALYDVAGNASASA [HC1456]" reported_value=0.218
input_sequence="CARRKRKEKQAGNASASA [FS-3231]" reported_value=-1.72
input_sequence="CAFDVVCCSMAGNASASA [HC2107]" reported_value=-0.364
input_sequence="CARQRRVAGLAGNASASA [FS-2767]" reported_value=-1.21
input_sequence="CARQRRHPELAGNASASA [FS-2763]" reported_value=2.08
input_sequence="CAVEECSQHLAGNASASA [HC1670]" reported_value=0.23
input_sequence="CAAAQGYKVLAGNASASA [HC783]" reported_value=0.259
input_sequence="CARIVGPRTCAGNASASA [HC1183]" reported_value=0.967
input_sequence="CARERRWQDVAGNASASA [FS-1698]" reported_value=-0.457
input_sequence="CARKWRSWKVAGNASASA [FS-2274]" reported_value=1.07
input_sequence="CAVQEDAASLAGNASASA [HC1535]" reported_value=-1.62
input_sequence="CAKANLLSVEAGNASASA [HC1410]" reported_value=-0.514
input_sequence="CARQRRPWEPAGNASASA [FS-2366]" reported_value=-0.356
input_sequence="CATVSSEANAAGNASASA [HC1364]" reported_value=-0.827
input_sequence="CAATCINGVCAGNASASA [HC696]" reported_value=-1.44
input_sequence="CAVVCCSMSIAGNASASA [HC2084]" reported_value=-0.331
input_sequence="CAAKSVCGPVAGNASASA [HC410]" reported_value=-0.0296
input_sequence="CARQRRAFQVAGNASASA [FS-2508]" reported_value=1.92
input_sequence="CALEQALDCEAGNASASA [HC1590]" reported_value=-1.94
input_sequence="CARVTRSLDVAGNASASA [FS-3127]" reported_value=5.89
input_sequence="CAEVPCHHPSAGNASASA [HC2375]" reported_value=0.748
input_sequence="CARQMRSVDVAGNASASA [FS-3039]" reported_value=2.09
input_sequence="CARQRRSSGHAGNASASA [FS-3164]" reported_value=6.61
input_sequence="CARMKRSRCPAGNASASA [FS-2721]" reported_value=5.18
input_sequence="CAHRGPARRSAGNASASA [FS-1533]" reported_value=2.51
input_sequence="CARRKRSVAQAGNASASA [FS-1919]" reported_value=4.44
input_sequence="CAGWIRSRKAAGNASASA [FS-1529]" reported_value=-0.333
input_sequence="CATVSRFRKAAGNASASA [FS-731]" reported_value=4.07
input_sequence="CATSPCSGSWAGNASASA [HC1857]" reported_value=-0.464

Values compiled from the supplement of paper PMC3545927.
